Source: ChEMBL document CHEMBL4359864

tested on: CYP450; experiment: Microsomal stability in mouse liver microsomes assessed as CYP450-mediated metabolism by measuring compound remaining at 5 uM and measured for 60 mins in presence of NADPH by UPLC-MS/MS analysis (reference value: 100%); type: ADME; settings: read-out: Stability
endpoint: remaining at 1 h, 5 µM (%)
Give the number; % is assumed, so skip it.

O=C1C2=C(C(=O)c3c1cnc1cc(F)ccc31)C1CCC2C1 (stereo unspecified)
100
O=C1C2=C(C(=O)c3c1cnc1c(F)cccc31)C1CCC2C1 (stereo unspecified)
100
O=C1C2=C(C(=O)c3c1cnc1ccc(F)cc31)C1CCC2C1 (stereo unspecified)
100
O=C1C2=C(C(=O)c3c1cnc1ccccc31)C1CCC2C1 (stereo unspecified)
94
O=C1C2=C(C(=O)c3c1cnc1ccc(C(F)(F)F)cc31)C1CCC2C1 (stereo unspecified)
100

In: Look up remaining at 1 h, 5 µM of O=C1C2=C(C(=O)c3c1cnc1cc(C(F)(F)F)ccc31)C1CCC2C1 (stereo unspecified) and report it.
Out: 100

----------
test system: UGT; assay: Microsomal stability in mouse liver microsomes assessed as UGT-mediated metabolism by measuring compound remaining at 5 uM and measured for 60 mins in presence of UDPGA by UPLC-MS/MS analysis (reference value: 100%); type: ADME; details: read-out: Stability
endpoint: remaining at 1 h, 5 µM (%)
Give the number; % is assumed, so skip it.

O=C1C2=C(C(=O)c3c1cnc1cc(F)ccc31)C1CCC2C1 (stereo unspecified)
73
O=C1C2=C(C(=O)c3c1cnc1ccccc31)C1CCC2C1 (stereo unspecified)
78

In: Look up remaining at 1 h, 5 µM of O=C1C2=C(C(=O)c3c1cnc1ccc(F)cc31)C1CCC2C1 (stereo unspecified) and report it.
Out: 72

----------
test system: Mycobacterium tuberculosis; test: Antibacterial activity against Mycobacterium tuberculosis H37Ra ATCC 25177 incubated for 7 days by resazurin dye based fluorimetric assay; format: functional, organism-based; settings: H37Ra ATCC 25177, 168 h
Reported IC50 values follow for various compounds

O=C1C2=C(C(=O)c3c1cnc1ccccc31)C1CCC2C1 (configuration not stated)
1000 to 2000 nM

In: Report the value of IC50 obtained on Mycobacterium tuberculosis for O=C1C2=C(C(=O)c3c1cnc1ccc(C(F)(F)F)cc31)C1CCC2C1 (configuration not stated) .
Out: 2000 to 4000 nM

----------
tested on: Pseudomonas aeruginosa; experiment: Antibacterial activity against Pseudomonas aeruginosa ATCC 9027 incubated for 24 hrs by resazurin dye based fluorimetric assay; type: functional, organism-based; details: ATCC 9027, 24 h
Reported IC50 values follow for various compounds

In: Look up IC50 of O=C1C2=C(C(=O)c3c1cnc1cc(C(F)(F)F)ccc31)C1CCC2C1 (configuration not stated) and report it.
Out: > 64 µM

In: Look up IC50 of O=C1C2=C(C(=O)c3c1cnc1cc(F)ccc31)C1CCC2C1 (configuration not stated) and report it.
Out: > 64 µM

In: Look up IC50 of O=C1C2=C(C(=O)c3c1cnc1ccc(C(F)(F)F)cc31)C1CCC2C1 (configuration not stated) and report it.
Out: > 64 µM

----------
biological target: UGT (Homo sapiens, UniProt O60656+O75310+O75795+P06133+P0DTE4+P0DTE5+P16662+P19224+P22309+P22310+P35503+P35504+P36537+P54855+Q6UWM9+Q9BY64+Q9HAW7+Q9HAW8+Q9HAW9); assay: Microsomal stability in human liver microsomes assessed as UGT-mediated metabolism by measuring compound remaining at 5 uM and measured for 30 mins in presence of UDPGA by UPLC-MS/MS analysis (reference value: 100%); type: ADME; details: read-out: Stability
endpoint: remaining at 0.5 h, 5 µM

// solved cases for remaining at 0.5 h, 5 µM follow
O=C1C2=C(C(=O)c3c1cnc1cc(C(F)(F)F)ccc31)C1CCC2C1 (configuration not stated)
63%
O=C1C2=C(C(=O)c3c1cnc1cc(F)ccc31)C1CCC2C1 (configuration not stated)
76%
O=C(O)Cc1ccccc1Nc1c(Cl)cccc1Cl
16%
O=C1C2=C(C(=O)c3c1cnc1ccc(C(F)(F)F)cc31)C1CCC2C1 (configuration not stated)
74%
O=C1C2=C(C(=O)c3c1cnc1c(F)cccc31)C1CCC2C1 (configuration not stated)
71%

In: Look up remaining at 0.5 h, 5 µM of O=C1C2=C(C(=O)c3c1cnc1ccc(F)cc31)C1CCC2C1 (configuration not stated) and report it.
Out: 79%

In: Look up remaining at 0.5 h, 5 µM of O=C1C2=C(C(=O)c3c1cnc1ccccc31)C1CCC2C1 (configuration not stated) and report it.
Out: 76%

----------
assay: Cytotoxicity against mouse J774A.1 cells assessed as reduction in cell viability incubated for 24 hrs by neutral red uptake assay; format: cell-based, J774.A1
Values of CC50 at 24 h strictly less than 90 µM map to True, and values of at least 90 µM map to False.

Here's what some known entries look like.
O=C1C2=C(C(=O)c3c1cnc1ccc(F)cc31)C1CCC2C1 (configuration not stated)
False
O=C1C2=C(C(=O)c3c1cnc1cc(C(F)(F)F)ccc31)C1CCC2C1 (configuration not stated)
False
O=C1C2=C(C(=O)c3c1cnc1ccccc31)C1CCC2C1 (configuration not stated)
True
CC/C(=C(\c1ccccc1)c1ccc(OCCN(C)C)cc1)c1ccccc1
True
O=C1C2=C(C(=O)c3c1cnc1ccc(C(F)(F)F)cc31)C1CCC2C1 (configuration not stated)
False
O=C1C2=C(C(=O)c3c1cnc1c(F)cccc31)C1CCC2C1 (configuration not stated)
True

# ---- query compound ----
In: Dear colleague, could you confirm whether CC50 at 24 h of O=C1C2=C(C(=O)c3c1cnc1cc(F)ccc31)C1CCC2C1 (configuration not stated) falls below 90 µM? Thanks.
Out: True

----------
system: Staphylococcus aureus; test: Antibacterial activity against Staphylococcus aureus ATCC 6538 incubated for 24 hrs by resazurin dye based fluorimetric assay; format: functional, organism-based; conditions: ATCC 6538, 24 h
Reported IC50 values follow for various compounds

// solved cases for IC50 follow
O=C1C2=C(C(=O)c3c1cnc1c(F)cccc31)C1CCC2C1 (configuration not stated)
> 32 µM
O=C1C2=C(C(=O)c3c1cnc1ccc(C(F)(F)F)cc31)C1CCC2C1 (configuration not stated)
> 64 µM

In: Look up IC50 of O=C1C2=C(C(=O)c3c1cnc1ccccc31)C1CCC2C1 (configuration not stated) and report it.
Out: 32 to 64 µM

In: Look up IC50 of C[C@H]1c2cccc(O)c2C(=O)C2=C(O)[C@]3(O)C(=O)C(C(N)=O)=C(O)[C@@H](N(C)C)[C@@H]3[C@@H](O)[C@@H]21 and report it.
Out: < 0.25 µM

In: Look up IC50 of O=C1C2=C(C(=O)c3c1cnc1cc(C(F)(F)F)ccc31)C1CCC2C1 (configuration not stated) and report it.
Out: > 64 µM

In: Look up IC50 of O=C1C2=C(C(=O)c3c1cnc1ccc(F)cc31)C1CCC2C1 (configuration not stated) and report it.
Out: > 64 µM

In: Look up IC50 of O=C1C2=C(C(=O)c3c1cnc1cc(F)ccc31)C1CCC2C1 (configuration not stated) and report it.
Out: > 64 µM

----------
biological target: UGT (Homo sapiens, UniProt O60656+O75310+O75795+P06133+P0DTE4+P0DTE5+P16662+P19224+P22309+P22310+P35503+P35504+P36537+P54855+Q6UWM9+Q9BY64+Q9HAW7+Q9HAW8+Q9HAW9); assay: Microsomal stability in human liver microsomes assessed as UGT-mediated metabolism by measuring compound remaining at 5 uM and measured for 15 mins in presence of UDPGA by UPLC-MS/MS analysis (reference value: 100%); type: ADME; conditions: read-out: Stability
Reported remaining at 0.25 h, 5 µM values follow for various compounds
Give the number; % is assumed, so skip it.

In: Look up remaining at 0.25 h, 5 µM of O=C1C2=C(C(=O)c3c1cnc1cc(C(F)(F)F)ccc31)C1CCC2C1 (configuration not stated) and report it.
Out: 71

In: Look up remaining at 0.25 h, 5 µM of O=C(O)Cc1ccccc1Nc1c(Cl)cccc1Cl and report it.
Out: 22

In: Look up remaining at 0.25 h, 5 µM of O=C1C2=C(C(=O)c3c1cnc1ccc(C(F)(F)F)cc31)C1CCC2C1 (configuration not stated) and report it.
Out: 100

In: Look up remaining at 0.25 h, 5 µM of O=C1C2=C(C(=O)c3c1cnc1cc(F)ccc31)C1CCC2C1 (configuration not stated) and report it.
Out: 79

In: Look up remaining at 0.25 h, 5 µM of O=C1C2=C(C(=O)c3c1cnc1c(F)cccc31)C1CCC2C1 (configuration not stated) and report it.
Out: 78

In: Look up remaining at 0.25 h, 5 µM of O=C1C2=C(C(=O)c3c1cnc1ccccc31)C1CCC2C1 (configuration not stated) and report it.
Out: 83

In: Look up remaining at 0.25 h, 5 µM of O=C1C2=C(C(=O)c3c1cnc1ccc(F)cc31)C1CCC2C1 (configuration not stated) and report it.
Out: 92
